Assay: Short-term stability in spiked pooled human plasma (bench-top, 4 °C, 56 °C)
Details: validation standard ULOV
Record form. Attribute: Short-time stability (24h, RT, with daylight) Accuracy [%]. Fill in for each entry.
Answers are plain numbers, in %.

These recorded examples may help you get a feel for the data.
Form field Short-time stability (24h, RT, with daylight) Accuracy [%], entry CNC(=O)c1cc(Oc2ccc(NC(=O)Nc3ccc(Cl)c(C(F)(F)F)c3)c(F)c2)ccn1 : 89.0

Form field Short-time stability (24h, RT, with daylight) Accuracy [%], entry C[C@]12CC[C@H](O)CC1=CC[C@@H]1[C@@H]2CC[C@]2(C)C(c3cccnc3)=CC[C@@H]12 : 103.3

Form field Short-time stability (24h, RT, with daylight) Accuracy [%], entry COC(=O)c1ccc2c(c1)NC(=O)/C2=C(\Nc1ccc(N(C)C(=O)CN2CCN(C)CC2)cc1)c1ccccc1 : 105.8

Form field Short-time stability (24h, RT, with daylight) Accuracy [%], entry NC(=O)c1cccc2cn(-c3ccc([C@@H]4CCCNC4)cc3)nc12 : 95.8

For every item in the list below, what is its measured Short-time stability (24h, RT, with daylight) Accuracy [%]?
1. C=CC(=O)Nc1cc(Nc2nccc(-c3cn(C)c4ccccc34)n2)c(OC)cc1N(C)CCN(C)C
2. Cc1[nH]c2ccccc2c1CCNCc1ccc(/C=C/C(=O)NO)cc1
3. Cc1cn(-c2cc(NC(=O)c3ccc(C)c(Nc4nccc(-c5cccnc5)n4)c3)cc(C(F)(F)F)c2)cn1
4. CCN1CCN(Cc2ccc(Nc3ncc(F)c(-c4cc(F)c5nc(C)n(C(C)C)c5c4)n3)nc2)CC1
5. CCCS(=O)(=O)Nc1ccc(F)c(C(=O)c2c[nH]c3ncc(-c4ccc(Cl)cc4)cc23)c1F
6. CCOc1cc2ncc(C#N)c(Nc3ccc(OCc4ccccn4)c(Cl)c3)c2cc1NC(=O)/C=C/CN(C)C
7. Cc1cc(Nc2ncc(Cl)c(Nc3ccccc3S(=O)(=O)C(C)C)n2)c(OC(C)C)cc1C1CCNCC1
8. COc1cc(N2CCC(N3CCN(C)CC3)CC2)ccc1Nc1ncc(Cl)c(Nc2ccccc2P(C)(C)=O)n1

Outgoing:
[67.4, 96.0, 108.0, 88.4, 91.3, 28.5, 91.8, 91.3]

----------
Assay: Long-term stability in spiked pooled human plasma
Conditions: validation standard MOV
Record form. Attribute: Long-term stability, 3 month, -20°C Accuracy [%]. Fill in for each entry.
Answers are plain numbers, in %.

Form field Long-term stability, 3 month, -20°C Accuracy [%], entry CC1(C)CCC(CN2CCN(c3ccc(C(=O)NS(=O)(=O)c4ccc(NCC5CCOCC5)c([N+](=O)[O-])c4)c(Oc4cnc5[nH]ccc5c4)c3)CC2)=C(c2ccc(Cl)cc2)C1 : 100.0

Form field Long-term stability, 3 month, -20°C Accuracy [%], entry CNC(=O)c1ccc(N2C(=S)N(c3cnc(C#N)c(C(F)(F)F)c3)C(=O)C23CCC3)cc1F [Apalutamide] : 86.8

Form field Long-term stability, 3 month, -20°C Accuracy [%], entry CNC(=O)c1ccc(N2C(=S)N(c3ccc(C#N)c(C(F)(F)F)c3)C(=O)C2(C)C)cc1F [Enzalutamide] : 91.6

Form field Long-term stability, 3 month, -20°C Accuracy [%], entry O=C1CN2Cc3c(ccc(Cl)c3Cl)N=C2N1 [Anagrelide] : 95.7

Form field Long-term stability, 3 month, -20°C Accuracy [%], entry Cc1ccc(C(=O)Nc2ccc(CN3CCN(C)CC3)c(C(F)(F)F)c2)cc1C#Cc1cnc2cccnn12 : 95.0

For every item in the list below, what is its measured Long-term stability, 3 month, -20°C Accuracy [%]?
1. O=c1[nH]c(=O)n([C@H]2C[C@H](O)[C@@H](CO)O2)cc1C(F)(F)F
2. Cc1ccc(NC(=O)c2ccc(CN3CCN(C)CC3)cc2)cc1Nc1nccc(-c2cccnc2)n1
3. COc1cc2ncnc(Nc3ccc(F)c(Cl)c3)c2cc1OCCCN1CCOCC1
4. O=C(c1cc(Cc2n[nH]c(=O)c3ccccc23)ccc1F)N1CCN(C(=O)C2CC2)CC1
5. CCN1CCN(Cc2ccc(Nc3ncc(F)c(-c4cc(F)c5nc(C)n(C(C)C)c5c4)n3)nc2)CC1

Outgoing:
1. 92.2
2. 90.0
3. 102.7
4. 97.6
5. 104.4
